Data provenance is ChEMBL document CHEMBL1142933.

# Tested on: HL-60
# MEASUREMENT_NOTES: Inhibition of attachment of HL60 cells to E-selectin at 109 uM after 5 mins
# Assay type: functional
# MEASUREMENT_CONDITIONS: Homo sapiens, HL-60, 5 min
MEASURED_METRIC: inhibition at 109 µM (%)
Give bare numbers, in %.

Quick one: give me inhibition at 109 µM for each item below, same order please.
1. O=C(O)Cc1ccc(-c2ccccc2NC(=O)/C=C/c2cc(O)c(O)c(O)c2)s1
2. O=C(O)Cc1ccc(-c2ccc(NC(=O)c3cccc(-c4ccc(O)c(O)c4O)c3)cc2)s1
3. O=C(O)Cc1ccc(-c2ccccc2NC(=O)c2ccc(-c3ccc(O)c(O)c3O)cc2)s1

a:
[28, 47, 33]

For every record below, what is its inhibition at 109 µM?
1. O=C(O)Cc1cccc(-c2ccccc2O[C@H]2O[C@H](CO)[C@@H](O)[C@H](O)[C@@H]2O)c1
2. O=C(O)Cc1cccc(-c2ccccc2OC(=O)c2cc(O)c(O)c(O)c2)c1
3. O=C(O)Cc1ccc(-c2ccccc2NC(=O)CCCc2ccc(O)c(O)c2O)s1
4. O=C(Nc1ccccc1-c1ccc(C(=O)O)s1)c1cccc(-c2ccc(O)c(O)c2O)c1

a:
1. 34
2. 16
3. 26
4. 53

Hi team, please reply with inhibition at 109 µM for each item in this list.
1. O=C(O)Cc1cccc(-c2ccccc2NC(=O)Cc2cc(O)c(O)c(O)c2)c1
2. O=C(O)Cc1cccc(-c2ccccc2NC(=O)CCCNC(=O)c2cc(O)c(O)c(O)c2)c1

a:
1. 18
2. 29

Your task in this section: give inhibition at 109 µM for each listed record.
1. O=C(O)Cc1ccc(-c2ccccc2NC(=O)Cc2ccc(O)c(O)c2O)s1
2. O=C(O)Cc1ccc(-c2cccc(NC(=O)c3cccc(-c4ccc(O)c(O)c4O)c3)c2)s1

a:
26
58

====

Exercise: state measured inhibition for each of the compounds provided.
# ASSAY_SYSTEM: E-selectin (Homo sapiens)
# MEASUREMENT_NOTES: Inhibition of human E-selectin after 2 hrs at 100 uM

Past entries and their recorded results:
# COMPOUND, inhibition
measured = [
    ("O=c1cc(-c2ccccc2)oc2cc(O)cc(O)c12", "15%"),
    ("O=C(O)c1cccc(O)c1O", "6%"),
    ("O=c1c(O)cccc2cc(O)c(O)c(O)c12", "3.1%"),
]

Here are 4 compounds. What values of inhibition were reported for them?
1. O=C(O)C1=C[C@@H](O)[C@@H](O)[C@H](O)C1
2. O=C(O)c1ccc(O)c(O)c1
3. O=c1cc(-c2ccccc2)oc2cc(O)c(O)c(O)c12
4. Oc1cccc(O)c1O [PYROGALLOL]

a:
1: 25.6%; 2: 19.5%; 3: 37.6%; 4: 8.3%

====

# ASSAY_SYSTEM: E-selectin (Homo sapiens, UniProt P16581)
# Sequence (P16581 whole entry): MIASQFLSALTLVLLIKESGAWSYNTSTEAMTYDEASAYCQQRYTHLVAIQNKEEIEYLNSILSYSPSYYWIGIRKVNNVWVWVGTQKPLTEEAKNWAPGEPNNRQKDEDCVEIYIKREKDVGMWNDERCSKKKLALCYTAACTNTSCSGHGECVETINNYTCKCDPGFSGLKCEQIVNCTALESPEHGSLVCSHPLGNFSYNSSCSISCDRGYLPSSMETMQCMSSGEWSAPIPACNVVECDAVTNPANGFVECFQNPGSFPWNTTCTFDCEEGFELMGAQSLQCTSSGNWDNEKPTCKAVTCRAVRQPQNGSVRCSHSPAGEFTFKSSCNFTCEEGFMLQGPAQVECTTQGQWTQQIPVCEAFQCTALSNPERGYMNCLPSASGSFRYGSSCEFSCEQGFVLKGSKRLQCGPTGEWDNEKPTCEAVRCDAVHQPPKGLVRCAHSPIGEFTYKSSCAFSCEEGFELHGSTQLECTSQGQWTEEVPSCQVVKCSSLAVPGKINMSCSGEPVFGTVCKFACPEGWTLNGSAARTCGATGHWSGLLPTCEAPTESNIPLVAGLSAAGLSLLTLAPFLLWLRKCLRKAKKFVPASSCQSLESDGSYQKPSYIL
Please provide measured IC50 for the entries that follow.

Completed entries (count: 2):
# COMPOUND, IC50
rows = [
    ("O=C(O)Cc1ccc(-c2ccccc2NC(=O)CCCc2ccc(O)c(O)c2O)s1", "> 500 µM"),
    ("O=C(O)c1cc(O)c(O)c(O)c1", "> 500 µM"),
]

q: Give the reported value of IC50 for this record: O=C(O)Cc1cccc(-c2ccccc2O[C@H]2O[C@H](CO)[C@@H](O)[C@H](O)[C@@H]2O)c1
a: > 500 µM
